targetOrSystem: T1, Recombinant human NRP‐1 (human, UniProt O14786 22-856)
T1 construct: Neuropilin-1, human, recombinant soluble protein; see the vendor's datasheet (as far as I recall an extracellular fragment with a C-terminal His tag); also called Neuropilin‐1; soluble NRP‐1; source: bought: R&D Systems (3870‐N1)
T1 sequence (looked up): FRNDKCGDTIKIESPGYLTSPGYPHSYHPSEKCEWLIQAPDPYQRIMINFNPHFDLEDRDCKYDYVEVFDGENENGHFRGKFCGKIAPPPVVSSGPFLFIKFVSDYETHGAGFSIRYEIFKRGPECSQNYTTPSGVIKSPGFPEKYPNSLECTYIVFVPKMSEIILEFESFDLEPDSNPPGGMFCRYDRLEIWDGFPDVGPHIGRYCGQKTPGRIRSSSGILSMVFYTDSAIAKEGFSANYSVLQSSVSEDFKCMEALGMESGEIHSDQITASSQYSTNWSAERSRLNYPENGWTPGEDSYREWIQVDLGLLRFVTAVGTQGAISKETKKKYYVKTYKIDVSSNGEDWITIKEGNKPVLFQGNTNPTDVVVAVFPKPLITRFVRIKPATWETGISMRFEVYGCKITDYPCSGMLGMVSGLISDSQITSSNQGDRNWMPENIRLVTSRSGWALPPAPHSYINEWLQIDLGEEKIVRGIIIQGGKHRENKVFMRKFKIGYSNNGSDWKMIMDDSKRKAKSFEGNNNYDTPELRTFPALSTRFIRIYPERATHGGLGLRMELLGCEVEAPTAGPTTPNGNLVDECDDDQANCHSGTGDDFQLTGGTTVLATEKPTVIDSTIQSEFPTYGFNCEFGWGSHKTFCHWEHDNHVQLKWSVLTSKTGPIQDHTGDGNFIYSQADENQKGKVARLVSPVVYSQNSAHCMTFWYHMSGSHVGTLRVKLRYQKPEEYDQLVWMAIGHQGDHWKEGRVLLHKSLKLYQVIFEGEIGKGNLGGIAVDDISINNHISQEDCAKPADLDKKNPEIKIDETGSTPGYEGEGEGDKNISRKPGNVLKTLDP
measurementDescription: SPR; competition: NRP-1 immobilised by amine coupling; protein analyte at a fixed concentration (VEGFR-1/Fc 5 nM; α5β1 integrin 200 nM; semaphorin 3A 200 nM) injected together with peptide at different concentrations; HEPES-buffered saline
cond: both partners purified
endpointLabel: Ki (nM)
Form entry: value (nM) — number only.

Given NITVTLKKFPL (Unlabelled peptide, as co-injected in the SPR experiments; also called peptide Flt_(2‐11); source: synthetic peptide (Primm, Milan)) [Flt_(2‐11) peptide] , state its recorded Ki.
20
